B1: library; numbered along this chain (parent)
chain: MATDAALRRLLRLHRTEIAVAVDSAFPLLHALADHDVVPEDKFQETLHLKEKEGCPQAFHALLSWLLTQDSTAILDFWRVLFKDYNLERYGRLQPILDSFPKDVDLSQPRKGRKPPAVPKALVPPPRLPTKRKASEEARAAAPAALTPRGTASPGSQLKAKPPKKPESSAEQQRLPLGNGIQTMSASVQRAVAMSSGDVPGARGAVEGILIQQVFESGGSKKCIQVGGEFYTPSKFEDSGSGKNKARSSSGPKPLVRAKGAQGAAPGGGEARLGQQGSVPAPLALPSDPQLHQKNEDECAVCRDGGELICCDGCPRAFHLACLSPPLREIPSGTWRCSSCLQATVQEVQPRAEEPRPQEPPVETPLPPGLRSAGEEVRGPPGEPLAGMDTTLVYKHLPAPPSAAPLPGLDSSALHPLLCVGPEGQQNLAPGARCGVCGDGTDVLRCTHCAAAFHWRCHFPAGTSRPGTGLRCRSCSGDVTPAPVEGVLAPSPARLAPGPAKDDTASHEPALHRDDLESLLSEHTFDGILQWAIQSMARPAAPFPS

variants of: B1; assay: AIRE transcriptional activation functional score (insulin promoter-GFP; nonsense median 0, synonymous median 1) (normalised score); higher = higher AIRE activity (more reporter activation); details: with insulin promoter-GFP reporter in HEK293
Catalogue of variants with associated AIRE transcriptional activation functional score
readout.type: AIRE transcriptional activation functional score

{"mutant.name": "L409Q", "result": 0.636}
{"mutant.name": "R471D", "result": 0.476}
{"mutant.name": "S99E", "result": 0.0893}
{"mutant.name": "A482L", "result": 1.44}

Recorded values, source the supplement of paper PMC12667976.
